Assay: yeast display, Sf9 membrane polyspecificity reagent, FACS + sequencing; frameworks hold sequencing errors

Item sequence	polyreactivity (PSR sort gate)
QVQLVESGGGLVQAGGSLRLSCASSGRIFSNYAMGWYRQAPGKERELVAAISWRTSNTYYADSVKGRFTISRDNAKYTVYLQMNSQKPEDTAVYYCAKYRRFRPYGSNGIYDYWGQGTQVSVSS	high polyreactivity
QVKLVESGGGLVQAGGSLRLSCAASGSTFPTNAMVCYRQAPGKERELVAGITEGGSSTYYADSVKGRFTISRDNAKNTVYLQMNSLKPEVTAVYYCAADVLWYGPFWVRQDDYWGQGTQVTVSS	high polyreactivity
QDQLVESGGGLVQAGGSLRLSCAASGGTFSLYAKGWYRQAPGKEREFVAAISWRGTSTYYADSVKGRFTISRDNAKNTVYLQMNSLKPEDTAVYYCAARAWHEYGSWVQGTQVTVSS	high polyreactivity
QVQLVESGGGLVQAGGSLRLICAASGYTFGYYAMGWYRQAPGKERELVAAISWRGARTNYADSVEGRFTISRDNAKNTVYLQMNSLKPEDTAVYYCAARGGYYQGRYKYGYWGQGTQVTVSS	high polyreactivity

###

Assay: yeast display, Sf9 membrane polyspecificity reagent, FACS + sequencing; frameworks hold sequencing errors
Reported endpoint: polyreactivity (PSR sort gate)

Item sequence	Observed result
QVQLVESGGGLVQAGGSLRLSCAASGGIFYSYAMGWYRQAPGKERELVAALSRGSRTYYADSVKGRFTISRDNAKNTVYLQMNSLKPEDTAVYYCAAYIVGSYRDGYWGQGTQVSVSS	high polyreactivity
QVQLVESGRGLVQAGGRHRISCAASGSIIHDYAMGLYSQAPGKERELVAVISTSGGSTYYADSVKGRFTMSRDNAKNTVYLQMISLKPEETEVYYCNARTVGPYPSHAALEYDSWGPGTQVTVSS	low polyreactivity
QVQLVESGGGLVQAGGSLSLSCAASGRTFYANAMGWNRQAPGKERELVATITRGGSTNYADSVKGRFTISRDNAKNTVYLQMNSLKPEDTAVYYCAARSYTSSHRHYYWGQGTQVTVSS	low polyreactivity
QVQLEESGGGLVQSGGSLRLSCAASGITFARYTMGWYRQAPGKERELVAAISSAGNTYYGDSVKGRFTISRDNAKNTVYLQMNSLKPEDTAVYYCAREYTYYPRWVGYDAYGEDYWGQGTQVTVSS	low polyreactivity
QLQLVESGGGLVQAGGSLRLSSAASGITFRGYTMGWYRPAPGKERELVARIRSSDGSTYYADSVKGRFTISRDNAKNTVYLQMNSLKPEDTAVYYCNDDRRGRALKYYSWGQGTQVTVSS	low polyreactivity
QVQLVESGGGLVQAGGSLRLSCAASGHIFFYYTMGWYRQAPGKERELVAGITIGGSTNYADSVKGRFTISRDNAKNTVYLQMNSLKPEDSAVYYCNVVKYVYIYSYWEYYYWGQGTQVTVSS	low polyreactivity
QVQLVESGGGLVQAGGSLRLSCAASGFIFKRYAMGWYRQAPGKERELVAAISTYSGGRTYYADSVKGRFTISRDNAKNSVYLQMNSLKPEDTAVYYCNARKYVGFWSRYDYWGQGTQVTVSS	high polyreactivity
QVQLVESGGGLVQAGGSLGLSCAASGLTFSRYAMGWYREAPGKEWELVASISQGGGSTYYADSVKGRFTISRDNPKKTVYLQMNSLKPEDTAVYYCIRLTIGSSSYDYWGQGTKVTVSS	high polyreactivity
QVQLVESGGGLVQAGGSLRLSCAASGFTFRSYAMGWYRQAPGKERELVASISPGATTKYADSVKGRFTISRDNAKNTVYLQMNSLKPEDTAVYYYEVYQILVRRLSYWGQGTQVTVSC	high polyreactivity
QVQLVESGGGLVQAGGSLRLSCAASGFTFGWYAMGWYRQAPGKERELVASISWSGSTTYYADSVKGRFTISRDNAKNTVYLQMNSLKPEDTAVYYCNARRSYVRNDFDYWGQGTQVTVSS	high polyreactivity
QVQLVESWGGLVQAGGSLRLSCAASGLTFNYYAMGWYRQAPGKERELVAAITSSGGSTYYADSVKGRFTISRDNAKNTVYLQMNSLKPEDTAVYYCNADVYAHRYIYGFDYWGQGTQVTVSS	high polyreactivity

###

Experiment: yeast display, Sf9 membrane polyspecificity reagent, FACS + sequencing; frameworks hold sequencing errors

Item sequence	polyreactivity (PSR sort gate)
QVQLVESGGGLVQAGCSLRLICAASGSIFDEYAMGWYRKAPGKERELVAAITSNGGSTYADSVKGRFTISRDNAKNTVYLQMNSLKPEDTAVYYCAADYFVYWYYGYGYWGQGTQVTVSS	low polyreactivity
QVQLVESGGGLVQAGGSLRLSCAASGRTLFWNAMGWYRQAPGKEREFVAAIRWRGGSTYYADSVKGRFTISRDNAKNTVYLQMNSLKPEDTAVYYCGAAVRPYKRQDDYWGQGTQVSVSS	high polyreactivity
QVQLVESGGGLVQAGGSLRLSCAASGFIFYYNAMVWYRQAPGKERELVAAITDDGGGTYYADSVKGRFTISRDNAKNTVYLQMNSLKPEDTAVYYCAADGYNYEHDYWGQGTQVTVSS	low polyreactivity
QVQLQESSGGLVQAGGSLRMSCAASGTIFHFHIMGWYRQAPGKEREFVAAISYGTSTYYADSVKGRFTISRDNAKKTVYLQMNSQKPEDTAVYYCAVYDDLEVYCWYWGQGTEVTVSS	low polyreactivity
QVQLVESGGGLVQAGGTLRLSCAASGRIFVYNAMGWYRQAPGKERELVATITSGGSTYYSDSLKGRFTISRDNAKNTLYFQMNSLKPEDTAVYYCAARRWYVHYFAYGYWGQGTQVTVSS	low polyreactivity
QVQLVESGVGLVQAGGSLRLSCAPSGFTFGRYAMGWYRQAPGKEREFVASISRSGGSTNYADSVKGRFTISRDNAKNTVYLQMNSLKPEDTAVYYCARDSWLHYRWGYDYWGQGTQVTVSS	high polyreactivity
QVQLVESGGGLVQAGGSLRLSCAASGSTFKAYAMGWYRQAPGKQRELVAAITKSGGRTYYADSVKGRFTISRDNAKNTVYLQMNSLKPEDTAVYYCAAVFRPDSSAYRYYYWGQGTQVTVSS	high polyreactivity
QVQLVESGGGLVQAGGSLRLSCAASGSTFVFYAMGWYRLAPGKDRELVAINSGGSTYYADSVKGRFTISRDNAKNTVYLQMNSLKPEDTAVYFCAKDPLRVWRFDYWGQGTQVTVSS	low polyreactivity
QVQLVESGGGLVQAGGSLRLSCAASGSIFDRNAMGWYRQAPGKERELVSAISRGGRTYYADSVKGRFTISRDNAKNTVYLQMNSLKPEVTAVYYCAAGYPSAWAYTTDDYWGQGTQVTVSS	low polyreactivity
QVQLVESGGGLVQAGGSLRLSCAASGLTFLWYAMGWYRQAPGKERELVAAITSGGRTKYADSVKGRFTISRDNAKNTVYLQMNSLKPEDTAVYYCAAYTQWWVYDYWGQGTQVTVSS	high polyreactivity
QVQLVESGGALVQAGGSLRLSCAASGRTINYYAMGWYRQAPGKERELVAAITWSGSSTYYADSVKGRFTISRDNAKYTVYLQMNSLKPEDTAVYYCNKASYTGYRSKRFYYWGQGTQVTVSS	high polyreactivity
QVQHVESGGGLVQAGGSLRLSCAASGSIFSHYAMGWYRQEPGKERELVATITWRGGSNTNYADSVKGRFTISRDNAKNTVYLQMNSLKPEDTAVYYCNAAFPYHYRFDYWGQGTQVTVSS	low polyreactivity
QVQLVESGGGLLQAGGSLRLSCASSGLIFLGYTMGRYIQAPGKERELVAAISRRGGRTYYADSVKGLFTISRDNAKNTVYLLMNSLKPEDTAVYYCNADITSSGPKSDYWGQGTQVTVSS	high polyreactivity
QVQLVESGGGLVQAGGSLRLICAASGRIFYVYAMGWYRQAPGKERELVAAITSGGSTYYADSVKGRFTISRDNAKNTVYLQMNSLKPEDTAVYYCAAYNRGRFRPYRFEYWGQGTQVTVSS	high polyreactivity
QVQLVESGGGLVHAGGSLRLSCAASGRTVKNNAMGWYRQSPGKERDLVAAISSTGSTNYADSVKGRFTISRDNAKNPVYLQMNSLKPADTAVYYCAAEGIFRYYTQATMEYWGQGTQVTVSS	low polyreactivity
QVQLLESGGGLVQAGGSLRLSCAAAGIIFGYYTMGWYRQAPGNERELVAAITTTGGSTYYADSVKGRCTISRDNAKNTVYLQMNSLKPEDTAVYYCAARKWSHRTISDYWGQGTQVTVSS	high polyreactivity
QVQLVESGGGLVQAGGSLRLSCAASRSIFSWYAMGWYRTAPGTERELVAAITWTGGSTYYADSVKGRFTISRDNAKNTVYLQMKSLKTEDTAVYYCAARRVVYRKYGDRGRWYNYWGQGTQVTVSS	high polyreactivity
QVQLVESGGGLVQAGGSLRLSCAASGFTFRGYAMGWYRQAPGKERELVAAISWRGGSTYYADSVKGRFTISRDNAKNTVYLQMNSLKPEDTAVYYCAARYGRSYFGYYYWGQGTQVTVSS	high polyreactivity
QVQLVESGGGLVQAGGSLRLRCAASGRTFRRNAMGWYRQAPGKERELVAGISWGGGSTYYADSVKGRFTISRDNAKNTVYLQMNSLKPEDTAVYYCAASGYFYRAYGYWGQGTQVTVSS	high polyreactivity
QVQLVESGGGLVQAGGSLRLSCAASGFIFADYAMGWYRQAPGKERELVAAITGRGTSTYYEDSVKGRFTISRDNAKNTVYLQMNSLKPEDTAVYLCAAAGTYYRHYKGYYRHLDYWGQGTQVTVSS	high polyreactivity
QVQLVESGGGLLQAGGSLRLSCAASGRICRYYAMGGYRQAPGKERELVAGIRTSGGRTYADSVKGRFTISRDYAKNTVYLQMNSLKPEDTAVYYCAAGRRTLSMYYWGQGTQVTVSS	high polyreactivity
